STUDY_TARGET: c-KIT (Homo sapiens, UniProt P10721)
Sequence (P10721 26-976): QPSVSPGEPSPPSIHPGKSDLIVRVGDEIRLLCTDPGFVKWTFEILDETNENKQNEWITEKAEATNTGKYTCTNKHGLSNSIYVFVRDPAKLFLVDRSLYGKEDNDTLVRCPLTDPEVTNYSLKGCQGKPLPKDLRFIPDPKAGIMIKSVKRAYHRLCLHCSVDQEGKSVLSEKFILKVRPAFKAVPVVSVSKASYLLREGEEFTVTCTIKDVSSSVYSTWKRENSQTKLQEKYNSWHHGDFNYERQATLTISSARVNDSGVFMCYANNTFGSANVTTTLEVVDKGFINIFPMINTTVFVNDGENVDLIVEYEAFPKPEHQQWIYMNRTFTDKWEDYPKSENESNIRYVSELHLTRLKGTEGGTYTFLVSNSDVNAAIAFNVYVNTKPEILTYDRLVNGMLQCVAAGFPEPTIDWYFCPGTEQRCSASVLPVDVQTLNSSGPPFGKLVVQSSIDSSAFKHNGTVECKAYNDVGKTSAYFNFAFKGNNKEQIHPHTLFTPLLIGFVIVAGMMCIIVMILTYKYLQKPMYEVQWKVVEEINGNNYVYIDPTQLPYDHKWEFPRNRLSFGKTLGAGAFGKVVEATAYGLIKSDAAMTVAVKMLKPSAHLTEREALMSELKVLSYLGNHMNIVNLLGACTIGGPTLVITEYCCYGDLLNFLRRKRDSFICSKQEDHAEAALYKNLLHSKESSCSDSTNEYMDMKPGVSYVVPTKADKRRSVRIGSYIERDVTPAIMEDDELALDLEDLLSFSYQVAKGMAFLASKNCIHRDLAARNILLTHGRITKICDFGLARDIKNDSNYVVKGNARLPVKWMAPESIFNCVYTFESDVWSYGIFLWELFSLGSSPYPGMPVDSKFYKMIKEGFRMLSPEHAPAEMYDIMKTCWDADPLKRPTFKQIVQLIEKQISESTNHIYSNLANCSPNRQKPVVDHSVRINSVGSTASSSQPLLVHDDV
RECORDED_ENDPOINT: pKd
The read-out pKd is expressed as -log10 of concentration in moles per litre.

// molecule O=c1cc(-c2ccc(O)cc2)oc2cc(O)cc(O)c12 , assay c-KIT (Homo sapiens, UniProt P10721), pKd value: 5.59

Measured values drawn from paper PMC12066314 for this set.
